test system: KK-Ay mouse; test: 7-day subcutaneous administration to KK-Ay mouse: body weight, food intake, blood glucose and insulin; format: in vivo; details: sc, 192 h; 80 mg/kg s.c. for 7 days, male KK-Ay mouse, insulin in blood on eighth day; average, percent to value of control group; read-out: Insulin
The threshold is 50%. Values of response vs control in vivo at 80 mg/kg beneath it are tagged criterion met; values meeting or exceeding it are tagged criterion not met.

Reference set (8 entries):
| compound | assigned class |
| --- | --- |
| FC(F)(F)c1cc(OCCCN2CC=CCC2)cc(C(F)(F)F)c1 [Example 41] | criterion met |
| Fc1cc(F)c(OCCCN2CC=CCC2)c(F)c1 [Example 46] | criterion not met |
| Clc1ccc(NCCCN2CC=CCC2)cc1Cl [Example 11] | criterion not met |
| Cc1ccc(OCCCN2CC=CCC2)cc1C [Example 27] | criterion met |
| Fc1ccc(OCCCN2CC=CCC2)cc1F [Example 32] | criterion not met |
| FC(F)(F)c1ccc(Oc2ccc(OCCCN3CC=CCC3)cc2)cc1 [Example 44] | criterion met |
| FC(F)(F)c1cccc(OCCCN2CC=CCC2)c1 [Example 39] | criterion not met |
| Fc1ccc(OCCCN2CC=CCC2)c(F)c1 [Example 1] | criterion met |

**Q:** Lab note: response vs control in vivo at 80 mg/kg threshold 50%. Does this compound come in strictly under it? Clc1ccc(OCCN2CC=CCC2)cc1Cl [Example 9]
**A:** criterion not met

**Q:** Strictly below 50% in response vs control in vivo at 80 mg/kg? Cc1cc(OCCCN2CC=CCC2)ccc1F [Example 23]
**A:** criterion not met

**Q:** Lab log: compare recorded response vs control in vivo at 80 mg/kg with 50%; is it strictly lower for Clc1ccc(COCCCN2CC=CCC2)cc1Cl [Example 8] ?
**A:** criterion met

----------
system: KK-Ay mouse; experiment: 7-day subcutaneous administration to KK-Ay mouse: body weight, food intake, blood glucose and insulin; type: in vivo; details: sc, 192 h; 80 mg/kg s.c. for 7 days, male KK-Ay mouse, food intake from seventh to eighth day; average, percent to value of control group; read-out: Food intake
reported property: response vs control in vivo at 80 mg/kg
Enter the number, and then the unit.

| test smiles | response vs control in vivo at 80 mg/kg |
| --- | --- |
| Clc1cc(Cl)cc(OCCCN2CC=CCC2)c1 | 74% |
| Clc1cccc(OCCCN2CC=CCC2)c1 | 79% |
| Brc1ccc(OCCCN2CC=CCC2)c(Br)c1 | 100% |

**Q:** Which response vs control in vivo at 80 mg/kg is listed for "Clc1ccc(NCCCN2CC=CCC2)cc1Cl" ?
**A:** 92%

**Q:** Name the reported response vs control in vivo at 80 mg/kg value associated with the compound "Clc1ccc(OCCCN2CC=CCC2)cc1Cl"
**A:** 82%

----------
test system: KK-Ay mouse; assay: 7-day subcutaneous administration to KK-Ay mouse: body weight, food intake, blood glucose and insulin; assay type: in vivo; details: sc, 192 h; 80 mg/kg s.c. for 7 days, male KK-Ay mouse, food intake from seventh to eighth day; average, percent to value of control group; read-out: Food intake
# maps each entry to its response vs control in vivo at 80 mg/kg
The response must be a number in % with no trailing unit.

Observe how each entry below is paired with its result.
| test smiles | unit of measurement | response vs control in vivo at 80 mg/kg |
| --- | --- | --- |
| Cc1ccc(F)c(OCCCN2CC=CCC2)c1 | % | 82 |
| Clc1ccc(OCCCN2CC=CCC2)c(Cl)c1Cl | % | 78 |

**Q:** Fill in: response vs control in vivo at 80 mg/kg of "C1=CCN(CCCOc2ccc3sccc3c2)CC1" is ___
**A:** 84

**Q:** Entry "FC(F)(F)c1ccc(COc2ccc(OCCCN3CC=CCC3)cc2Cl)cc1" : reported response vs control in vivo at 80 mg/kg = ?
**A:** 72

**Q:** Which value of response vs control in vivo at 80 mg/kg has been reported for "Clc1ccc(COCCCN2CC=CCC2)cc1Cl" in the records?
**A:** 96

**Q:** Fill in: response vs control in vivo at 80 mg/kg of "Clc1ccc(OCCCCN2CC=CCC2)cc1Cl" is ___
**A:** 82

----------
tested on: KK-Ay mouse; test: 7-day subcutaneous administration to KK-Ay mouse: body weight, food intake, blood glucose and insulin; type: in vivo; details: sc, 192 h; 80 mg/kg s.c. for 7 days, male KK-Ay mouse, food intake from seventh to eighth day; average, percent to value of control group; read-out: Food intake
Hi! Just check whether response vs control in vivo at 80 mg/kg is below 80%. Below gives fulfilled, equal or above gives not fulfilled.

Worked examples follow.
| compound | assigned class |
| --- | --- |
| Cc1ccc(OCCCN2CC=CCC2)c(Cl)c1 [Example 25] | fulfilled |
| FC(F)(F)c1ccc(Oc2ccc(OCCCN3CC=CCC3)cc2)cc1 [Example 44] | fulfilled |
| Fc1cccc(F)c1OCCCN1CC=CCC1 [Example 36] | fulfilled |
| Clc1ccc(OCCN2CC=CCC2)cc1Cl [Example 9] | not fulfilled |
| COc1cccc(OCCCN2CC=CCC2)c1 [Example 5] | not fulfilled |
| Clc1ccc(OCCCN2CC=CCC2)c(Cl)c1 [Example 6] | not fulfilled |

**Q:** Check if response vs control in vivo at 80 mg/kg falls below 80% for Fc1cc(F)c(OCCCN2CC=CCC2)c(F)c1 [Example 46] .
**A:** not fulfilled

**Q:** State whether 80% exceeds response vs control in vivo at 80 mg/kg recorded for Fc1ccc(OCCCN2CC=CCC2)cc1F [Example 32] .
**A:** not fulfilled

**Q:** Say whether its response vs control in vivo at 80 mg/kg is strictly beneath 80%. Entry: Fc1ccc(OCCCN2CC=CCC2)c(F)c1 [Example 1]
**A:** fulfilled

----------
test system: KK-Ay mouse; experiment: 7-day subcutaneous administration to KK-Ay mouse: body weight, food intake, blood glucose and insulin; assay type: in vivo; conditions: sc, 192 h; 80 mg/kg s.c. for 7 days, male KK-Ay mouse, insulin in blood on eighth day; average, percent to value of control group; read-out: Insulin
# fulfilled = response vs control in vivo at 80 mg/kg below 50% (exclusive); not fulfilled = response vs control in vivo at 80 mg/kg at/above 50%

Worked examples follow.
| test smiles | assay system | assigned class |
| --- | --- | --- |
| Clc1cc(Cl)cc(OCCCN2CC=CCC2)c1 | KK-Ay mouse | not fulfilled |
| Cc1ccc(F)c(OCCCN2CC=CCC2)c1 | KK-Ay mouse | not fulfilled |
| C1=CCN(CCCOc2ccc3sccc3c2)CC1 | KK-Ay mouse | not fulfilled |
| Clc1cccc(OCCCN2CC=CCC2)c1 | KK-Ay mouse | fulfilled |
| Clc1ccc(OCCCN2CC=CCC2)c(Cl)c1 | KK-Ay mouse | fulfilled |

**Q:** Lab note: response vs control in vivo at 80 mg/kg threshold 50%. Does this molecule come in strictly under it? "Brc1ccc(OCCCN2CC=CCC2)c(Br)c1"
**A:** fulfilled

**Q:** Does the reported response vs control in vivo at 80 mg/kg of the following molecule sit strictly below 50%? "Cc1ccc(OCCCN2CC=CCC2)c(Cl)c1"
**A:** not fulfilled

**Q:** Lab note: response vs control in vivo at 80 mg/kg threshold 50%. Does this molecule come in strictly under it? "FC(F)(F)c1ccc(COc2ccc(OCCCN3CC=CCC3)cc2Cl)cc1"
**A:** fulfilled

**Q:** Input "COc1cccc(OCCCN2CC=CCC2)c1" ; condition: response vs control in vivo at 80 mg/kg strictly below 50%. Does it hold?
**A:** fulfilled

**Q:** Below 50% on response vs control in vivo at 80 mg/kg? Entry "CC(C)(C)c1cccc(OCCCN2CC=CCC2)c1"
**A:** not fulfilled

----------
tested on: KK-Ay mouse; assay: 7-day subcutaneous administration to KK-Ay mouse: body weight, food intake, blood glucose and insulin; assay type: in vivo; conditions: sc, 192 h; 80 mg/kg s.c. for 7 days, male KK-Ay mouse, food intake from seventh to eighth day; average, percent to value of control group; read-out: Food intake
reported property: response vs control in vivo at 80 mg/kg (%)
Express your answer in %, writing the number without its unit.

| compound | assay system | response vs control in vivo at 80 mg/kg [%] |
| --- | --- | --- |
| Brc1ccc(-c2ccc(OCCCN3CC=CCC3)cc2)cc1 [Example 30] | KK-Ay mouse | 73 |
| FC(F)(F)c1cc(OCCCN2CC=CCC2)cc(C(F)(F)F)c1 [Example 41] | KK-Ay mouse | 77 |
| Cc1cc(OCCCN2CC=CCC2)ccc1F [Example 23] | KK-Ay mouse | 76 |

Below: the item to evaluate.
**Q:** Which response vs control in vivo at 80 mg/kg is listed for Cc1ccc(OCCCN2CC=CCC2)cc1C [Example 27] ?
**A:** 77
